System: OVCAR-8 ovarian
TEST_SUMMARY: NCI-60 one-dose screen, 48 h (100 = growth as untreated, 0 = no growth, -100 = all killed)
PARTICULARS: 10 µM unless noted
The panel holds about 83,000 compounds, 20% with a hit somewhere; the sample as a whole holds those more often.
Decision: growth beneath 80% gives True; growth meeting or exceeding 80% gives False.

# COMPOUND, GROUP_LABEL
measured = [
    ("CC(=O)O[C@H]1[C@H](CC#CC#CC[C@@H]2C[C@]3(C)[C@H]4CC=C5[C@H]6[C@@H](C)[C@H](C)CC[C@]6(C(=O)NCCCCCCCCN)CC[C@@]5(C)[C@]4(C)CC[C@H]3C(C)(C)[C@H]2OC(C)=O)C[C@]2(C)[C@H]3CC=C4[C@H]5[C@@H](C)[C@H](C)CC[C@]5(C(=O)NCCCCCCCCN)CC[C@@]4(C)[C@]3(C)CC[C@H]2C1(C)C", "False"),
]

Query: In the record for COc1ccc(Nc2ncnc3c2sc2nc(C)cc(C)c23)cc1 , is growth less than 80%?
Reply: False

Query: Could you please tell me whether growth recorded for CCOC(=O)c1sc2nc(-c3cc4ccccc4o3)cc(-c3ccc(Cl)cc3)c2c1N is less than 80%?
Reply: False

Query: I'd appreciate it if you could check whether Oc1c(-c2cc(C(F)(F)F)[nH]n2)cc(Cl)c(OCc2ccc(Cl)cc2)c1-c1ccc(Cl)c(C(F)(F)F)c1 has growth smaller than 80%.
Reply: True

Query: Consider COc1c(B(O)O)cccc1-c1nc2ccc3[nH]ncc3c2c2c1CCCC2 . Does its growth lie strictly below 80%?
Reply: True

Query: I'd appreciate it if you could check whether O=c1[nH]c2ccccc2n2cc3cccnc3c12 has growth smaller than 80%.
Reply: True

Query: Identify whether the compound Oc1ccc(-c2cnc(-c3ccccc3)[nH]2)c(O)c1 records growth below 80%.
Reply: False

Query: For this compound, is growth lower than 80%? C=C(C)[C@@H]1CC[C@]2(C)[C@H](CC=C3[C@@H]4C[C@](C)(C(=O)N5CCN(C)CC5)CC[C@]4(C)CC[C@]32C)[C@@]1(C)CCC#N
Reply: True

Query: Consider the compound OC(c1cc2cc(Cl)ccc2c2cc(C(F)(F)F)ccc12)C1CCCCN1 (stereo unspecified) . Is its growth strictly less than 80%?
Reply: True

Query: is_below(growth, 80%) for COC(=O)C(C)NC1=C(Cl)C(=O)C(NC(C)C(=O)OC)=C(Cl)C1=O (stereo unspecified) ?
Reply: False

Query: Is 80% strictly greater than the compound's reported growth? compound: N#Cc1c(N)n(C2OC(CO)C(O)C2O)c2ncnc(N)c12 (stereo unspecified)
Reply: True

Query: Would you kindly verify if growth of Nc1ncnc2c1N=C(c1ccc(F)cc1)CC(c1sc(Cl)nc1Cl)N2 (stereo unspecified) is strictly less than 80%?
Reply: False

Query: Dear colleague, could you confirm whether growth of CC(=O)[C@@]1(O)[C@H](C)C[C@H]2[C@@H]3C=C(C)C4=Cc5c(cnn5-c5ccccc5)C[C@]4(C)[C@H]3[C@@H](O)C[C@@]21C falls below 80%? Thanks.
Reply: True

Query: Does CCCCCCCCCCCCCC(=S)NCCCC[C@H](NC(=O)OCc1ccccc1)C(=O)Nc1ccccc1 have growth strictly under 80%?
Reply: True

Query: Field: below-cutoff. Rule: recorded growth strictly less than 80%. Subject: Cc1cc(Cl)c2ccc(N(C)C)cc2n1
Reply: False

Query: Quick check: growth of C#CC[C@@H]1C[C@]2(C)[C@H]3CC=C4[C@H]5[C@@H](C)[C@H](C)CC[C@]5(C(=O)NCCCCN)CC[C@@]4(C)[C@]3(C)CC[C@H]2C(C)(C)[C@H]1OC(C)=O under 80%?
Reply: True

Query: State whether 80% exceeds growth recorded for COc1ccc(/C(=C\c2cc(OC)c(OC)c(OC)c2)C(=O)N2CCCNCC2)cc1 .
Reply: False

Query: # TODO verify growth < 80% strictly for this compound: CN1CCN(Cc2ccc(NC(=O)c3cccc(C#Cc4cnc(N)c5ncccc45)c3F)cc2C(F)(F)F)CC1
Reply: True
